Assay: Solubility profile (free acid in HCl/NaOH solution, centrifugation, supernatant assayed by HPLC)
Format: physicochemical
Conditions: aqueous HCl/NaOH solution, aqueous buffer, thermodynamic from solid; in the ionized form (so in the source); read-out: aqueous solubility
Experimental readout: solubility

Given Cc1cccc(-c2ccc3c(c2)c(C(=O)C(=O)O)cn3Cc2ccc(C(C)(C)C)cc2)c1 , state its recorded solubility.
~0.25 µg/mL

----------
Test: Solubility profile (free acid in HCl/NaOH solution, centrifugation, supernatant assayed by HPLC)
Format: physicochemical
Conditions: water, thermodynamic from solid; neutral pH 6.9
Experimental readout: solubility at 24 h (µg/mL)
# unit: µg/mL | format: bare number

Given Cc1cccc(-c2ccc3c(c2)c(C(=O)C(=O)O)cn3Cc2ccc(C(C)(C)C)cc2)c1 , state its recorded solubility at 24 h.
24

----------
Experiment: Bioavailability of three formulations, single oral gavage dose, plasma pharmacokinetics
Type: in vivo
Conditions: male, dog, in vivo, po, 300 mg/kg, 8 hours after dose, Formula C, fasted male dogs, individual dogs and Mean
Experimental readout: concentration at 8 h (ng/mL)
# unit: ng/mL | format: bare number

Given Cc1cccc(-c2ccc3c(c2)c(C(=O)C(=O)O)cn3Cc2ccc(C(C)(C)C)cc2)c1 , state its recorded concentration at 8 h.
31900

----------
Experiment: Solubility profile (free acid in HCl/NaOH solution, centrifugation, supernatant assayed by HPLC)
Format: physicochemical
Conditions: 2% Tween80/0.5% methylcellulose solution, pH 3.5, aqueous with cosolvent or surfactant or cyclodextrin; read-out: solubility
Text: In some embodiments, the [1-(4-tert-Butylbenzyl)-5-(3-methylphenyl)-1H-indol-3-yl](oxo)acetic acid used with the composition of the invention is micronized.
Experimental readout: solubility (µg/mL)
# unit: µg/mL | format: bare number

Given Cc1cccc(-c2ccc3c(c2)c(C(=O)C(=O)O)cn3Cc2ccc(C(C)(C)C)cc2)c1 , state its recorded solubility.
580

----------
Experiment: Bioavailability of three formulations, single oral gavage dose, plasma pharmacokinetics
Format: in vivo
Details: male, dog, in vivo, po, 300 mg/kg, 0.25 hours after dose, Formula C, fasted male dogs, individual dogs and Mean
Experimental: Three formulations were evaluated for the bioavilability of [1-(4-tert-butylbenzyl)-5-(3-methylphenyl)-1h-indol-3-yl](oxo)acetic acid in male dogs. […] The pharmacokinetic parameters, AUC, Cmax, tmax and t1/2, were determined for each dog, and descriptive statistics were calculated for comparison among formulations. […]
Experimental readout: concentration at 0.25 h (ng/mL)
# unit: ng/mL | format: bare number

Given Cc1cccc(-c2ccc3c(c2)c(C(=O)C(=O)O)cn3Cc2ccc(C(C)(C)C)cc2)c1 , state its recorded concentration at 0.25 h.
2330

----------
Experiment: Bioavailability of three formulations, single oral gavage dose, plasma pharmacokinetics
Assay type: in vivo
Settings: male, dog, in vivo, po, 300 mg/kg, 2 hours after dose, Formula C, fasted male dogs, individual dogs and Mean
Experimental readout: concentration at 2 h

Given Cc1cccc(-c2ccc3c(c2)c(C(=O)C(=O)O)cn3Cc2ccc(C(C)(C)C)cc2)c1 , state its recorded concentration at 2 h.
30000 ng/mL
